# IC50 listing for each entry below
# assay.target: Human recombinant PDE10A (hPDE10A) (Homo sapiens, UniProt Q9Y233)
# Construct: His tag (inferred from metal chelate purification); made in house; host or cells: Sf9 insect cells (baculovirus)
# Sequence (Q9Y233 267-1055): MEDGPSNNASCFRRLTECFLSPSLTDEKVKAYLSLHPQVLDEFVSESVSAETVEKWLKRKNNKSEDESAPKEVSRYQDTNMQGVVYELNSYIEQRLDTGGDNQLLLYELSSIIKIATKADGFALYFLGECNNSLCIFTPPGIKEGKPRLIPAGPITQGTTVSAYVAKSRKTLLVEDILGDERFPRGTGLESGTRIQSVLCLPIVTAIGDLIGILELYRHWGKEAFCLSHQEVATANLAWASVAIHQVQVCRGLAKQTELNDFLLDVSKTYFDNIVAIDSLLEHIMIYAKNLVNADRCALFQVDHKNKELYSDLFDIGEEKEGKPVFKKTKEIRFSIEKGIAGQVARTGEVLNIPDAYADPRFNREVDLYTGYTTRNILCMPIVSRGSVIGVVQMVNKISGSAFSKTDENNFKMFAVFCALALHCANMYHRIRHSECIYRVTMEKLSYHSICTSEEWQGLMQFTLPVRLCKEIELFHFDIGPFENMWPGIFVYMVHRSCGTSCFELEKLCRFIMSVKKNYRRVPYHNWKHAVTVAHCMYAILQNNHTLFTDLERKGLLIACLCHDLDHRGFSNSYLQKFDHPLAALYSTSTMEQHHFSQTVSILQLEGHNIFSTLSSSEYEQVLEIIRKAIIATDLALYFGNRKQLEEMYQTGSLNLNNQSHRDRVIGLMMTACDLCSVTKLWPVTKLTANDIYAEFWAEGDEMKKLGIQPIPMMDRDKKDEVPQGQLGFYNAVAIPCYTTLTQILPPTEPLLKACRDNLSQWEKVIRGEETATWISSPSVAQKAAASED
# experiment.notes: In vitro assay PDE10A, human clone (SPA, 3H-cAMP hydrolysis)
# Assay type: biochemical
# reported.conditions: human clone by default (no (r) mark); read-out: hPDE10A2 or rPDE10A2 pIC50 (converted)
A number alone suffices; assume nM.

Examples from the recorded data:
{"compound": "Cc1cc2cc(C(=O)N3[C@H]4CC[C@H](c5cc(C(F)F)nc6ncnn56)[C@@H]3CC4)ccc2n1C [Compound 373]", "IC50 [nM]": 316}
{"compound": "Cn1c(C(=O)N2[C@H]3CC[C@H](c4cc(C(F)F)nc5ncnn45)[C@@H]2CC3)cc2ccccc21 [Compound 300]", "IC50 [nM]": 2880}
{"compound": "O=C(c1cc(OC(F)F)cc(C2CC2)c1)N1[C@H]2CC[C@H](c3cc(C(F)F)nc4ncnn34)[C@@H]1CC2 [Compound 352]", "IC50 [nM]": 479}
{"compound": "Cc1cc(C(=O)N2CC[C@@H](C)[C@H](c3cc(C(F)F)nc4ncnn34)C2)cc(CO)n1 [Compound 361]", "IC50 [nM]": 355}

Attention now shifts to the item below.
What IC50 appears in the records for this compound with Human recombinant PDE10A (hPDE10A) (Homo sapiens, UniProt Q9Y233)? Cc1c(C(=O)N2[C@H]3CC[C@H](c4cc(C(F)F)nc5ncnn45)[C@@H]2CC3)oc2ccccc12 [Compound 273]
977

---

# assay.target: Human recombinant PDE3A (hPDE3A) (Homo sapiens, UniProt Q14432)
# Construct: purchased Scottish Biomedical; host or cells: Sf9 insect cells
# Sequence (Q14432 whole entry): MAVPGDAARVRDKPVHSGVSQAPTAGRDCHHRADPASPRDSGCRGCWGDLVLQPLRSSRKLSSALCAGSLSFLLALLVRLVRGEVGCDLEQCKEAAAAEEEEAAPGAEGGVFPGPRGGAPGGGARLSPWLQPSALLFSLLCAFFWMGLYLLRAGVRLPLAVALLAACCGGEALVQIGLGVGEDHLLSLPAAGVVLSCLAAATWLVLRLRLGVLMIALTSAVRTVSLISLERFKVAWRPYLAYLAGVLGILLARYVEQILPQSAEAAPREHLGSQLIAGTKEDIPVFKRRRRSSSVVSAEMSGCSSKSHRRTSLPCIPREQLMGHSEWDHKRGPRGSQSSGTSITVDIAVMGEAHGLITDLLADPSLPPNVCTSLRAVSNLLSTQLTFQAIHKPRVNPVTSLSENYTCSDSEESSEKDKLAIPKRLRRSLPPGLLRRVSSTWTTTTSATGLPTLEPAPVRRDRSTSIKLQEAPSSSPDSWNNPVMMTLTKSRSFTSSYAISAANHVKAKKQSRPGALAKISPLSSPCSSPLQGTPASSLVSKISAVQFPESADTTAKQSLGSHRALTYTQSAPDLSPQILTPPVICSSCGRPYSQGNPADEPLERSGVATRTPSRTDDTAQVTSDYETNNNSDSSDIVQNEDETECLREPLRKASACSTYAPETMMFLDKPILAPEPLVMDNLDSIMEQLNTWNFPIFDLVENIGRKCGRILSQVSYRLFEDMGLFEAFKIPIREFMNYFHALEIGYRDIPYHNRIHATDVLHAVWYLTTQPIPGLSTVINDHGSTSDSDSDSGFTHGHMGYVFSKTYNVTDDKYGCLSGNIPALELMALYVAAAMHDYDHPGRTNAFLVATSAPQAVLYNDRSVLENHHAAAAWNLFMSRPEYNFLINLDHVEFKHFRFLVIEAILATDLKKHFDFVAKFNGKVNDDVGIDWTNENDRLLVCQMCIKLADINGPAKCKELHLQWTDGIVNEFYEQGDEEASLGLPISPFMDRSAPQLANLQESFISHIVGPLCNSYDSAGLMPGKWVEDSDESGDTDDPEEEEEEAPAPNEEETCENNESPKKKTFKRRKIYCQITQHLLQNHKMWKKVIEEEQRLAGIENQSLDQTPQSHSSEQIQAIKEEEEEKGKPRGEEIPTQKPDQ
# experiment.notes: In vitro assay PDE3A (SPA, 3H-cAMP hydrolysis);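 further: the method names PDE3A and the table heading PDE3B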
# Assay type: biochemical
# reported.conditions: hPDE3B pIC50; read-out: pIC50 (converted)
outcome.measure: IC50 (µM)
A number alone suffices; assume µM.

{"smiles.record": "Cn1ccc2cc(C(=O)N3[C@H]4CC[C@H](c5cc(C(F)F)nc6ncnn56)[C@@H]3CC4)cc(F)c21", "unit.descriptor": "µM", "IC50": 0.741}

Query: IC50; subject: Cc1cc(C(=O)N2[C@H]3CC[C@H](c4cc(C(F)F)nc5ncnn45)[C@@H]2CC3)ccc1Cl
4.47

---

# assay.target: Human recombinant PDE2A (hPDE2A) (Homo sapiens)
# Construct: His tag (inferred from metal chelate purification); made in house; host or cells: Sf9 insect cells (baculovirus)
# Sequence (O00408 whole entry): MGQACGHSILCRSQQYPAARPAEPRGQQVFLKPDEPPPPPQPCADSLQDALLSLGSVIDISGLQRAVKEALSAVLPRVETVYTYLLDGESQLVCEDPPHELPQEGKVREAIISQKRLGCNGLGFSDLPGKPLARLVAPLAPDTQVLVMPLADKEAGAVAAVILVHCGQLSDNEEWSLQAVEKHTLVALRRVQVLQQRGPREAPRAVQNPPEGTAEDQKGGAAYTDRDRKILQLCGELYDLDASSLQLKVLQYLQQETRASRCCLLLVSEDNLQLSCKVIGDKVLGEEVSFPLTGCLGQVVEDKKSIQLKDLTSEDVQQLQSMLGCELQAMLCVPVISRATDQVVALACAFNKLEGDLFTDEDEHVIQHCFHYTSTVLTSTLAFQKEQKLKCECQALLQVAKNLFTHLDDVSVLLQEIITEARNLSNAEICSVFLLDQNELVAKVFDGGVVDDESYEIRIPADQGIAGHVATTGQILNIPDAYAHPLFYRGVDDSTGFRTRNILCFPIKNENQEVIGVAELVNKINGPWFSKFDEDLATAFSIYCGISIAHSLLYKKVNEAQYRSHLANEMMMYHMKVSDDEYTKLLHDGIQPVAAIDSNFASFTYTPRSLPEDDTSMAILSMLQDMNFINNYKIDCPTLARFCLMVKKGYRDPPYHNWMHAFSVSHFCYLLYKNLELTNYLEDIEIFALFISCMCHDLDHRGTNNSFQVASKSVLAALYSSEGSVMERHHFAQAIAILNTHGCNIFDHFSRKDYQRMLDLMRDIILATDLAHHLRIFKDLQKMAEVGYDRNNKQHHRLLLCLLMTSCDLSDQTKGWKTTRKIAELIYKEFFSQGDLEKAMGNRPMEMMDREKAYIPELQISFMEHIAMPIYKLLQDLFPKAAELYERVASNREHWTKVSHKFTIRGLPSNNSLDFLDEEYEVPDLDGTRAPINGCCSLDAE
# experiment.notes: In vitro assay PDE2A (SPA, 3H-cGMP hydrolysis)
# Format: biochemical
# reported.conditions: human recombinant PDE2A, 10 μM cGMP substrate; read-out: hPDE2A pIC50 (converted)
# IC50 listing for each entry below
A number alone suffices; assume nM.

{"molecule": "Cc1cc([C@@H]2CN(C(=O)c3cc4ccccc4o3)CC[C@H]2C)n2ncnc2n1", "outcome.measure": "IC50", "value.observed": 1.1}
{"molecule": "C[C@@H]1CCN(C(=O)c2ccn(C)c2)C[C@H]1c1cc(C(F)F)nc2ncnn12", "outcome.measure": "IC50", "value.observed": 2.57}
{"molecule": "C[C@@H]1CCN(C(=O)c2ccc3nccn3c2)C[C@H]1c1cc(C(F)F)nc2ncnn12", "outcome.measure": "IC50", "value.observed": 0.355}
{"molecule": "C[C@@H]1CCN(C(=O)c2ccc(F)c(O)c2)C[C@H]1c1cc(C(F)F)nc2ncnn12", "outcome.measure": "IC50", "value.observed": 10.7}
{"molecule": "C[C@@H]1CCN(C(=O)c2ccc3ncsc3c2)C[C@H]1c1cc(C(F)F)nc2ncnn12", "outcome.measure": "IC50", "value.observed": 0.224}

Query: IC50; subject: C[C@@H]1CCN(C(=O)c2ccc3nc(N)sc3c2)C[C@H]1c1cc(C(F)F)nc2ncnn12
0.209

// next record C[C@@H]1CCN(C(=O)c2ccc(C(F)(F)F)nc2)C[C@H]1c1cc(C(F)F)nc2ncnn12
97.7

// next record Cc1coc2ccc(C(=O)N3CC[C@@H](C)[C@H](c4cc(C(F)F)nc5ncnn45)C3)cc12
0.398

// next record C[C@@H]1CCN(C(=O)c2ccnn2C)C[C@H]1c1cc(C(F)F)nc2ncnn12
27.5

// next record COc1ccc(C(=O)N2CC[C@@H](C)[C@H](c3cc(C(F)F)nc4ncnn34)C2)nc1
17.4

// next record COc1cc(C(=O)N2CC[C@@H](C)[C@H](c3cc(C(F)F)nc4ncnn34)C2)ccc1Cl
2.45

// next record C[C@@H]1CCN(C(=O)c2ncccc2N)C[C@H]1c1cc(C(F)F)nc2ncnn12
575

// next record CC1(c2ccnc3ncnn23)CCCN(C(=O)c2ccc3occc3c2)C1 (stereo not drawn)
2690

// next record C[C@@H]1CCN(C(=O)c2ccc(Br)cn2)C[C@H]1c1cc(C(F)F)nc2ncnn12
43.7

// next record Cc1cc(C(=O)N2CC[C@@H](C)[C@H](c3cc(C(F)F)nc4ncnn34)C2)cc(C(F)(F)F)n1
2.51
